Attribution: ChEMBL document CHEMBL1152610

Each entry below carries its reported pEC50.
target_under_test: Adenosine receptor A1 (Homo sapiens, UniProt P30542)
Sequence (P30542 whole entry): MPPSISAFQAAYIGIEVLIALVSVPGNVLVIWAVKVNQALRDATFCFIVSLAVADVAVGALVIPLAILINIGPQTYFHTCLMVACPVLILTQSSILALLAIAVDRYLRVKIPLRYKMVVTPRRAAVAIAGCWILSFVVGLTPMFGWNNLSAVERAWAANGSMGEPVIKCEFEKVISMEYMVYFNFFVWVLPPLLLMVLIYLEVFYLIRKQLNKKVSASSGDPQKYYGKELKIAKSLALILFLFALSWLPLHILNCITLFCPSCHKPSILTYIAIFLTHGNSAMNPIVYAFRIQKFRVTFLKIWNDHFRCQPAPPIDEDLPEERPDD
protocol_summary: Allosteric modulatory activity at human adenosine A1 receptor expressed in CHOk1 cells assessed as drug level causing half maximal allosteric effect on [125I]-ABA dissociation from receptor-G protein ternary complex by dissociation kinetic binding assay
pEC50: −log10 of the molar value.

[[record]]
compound_smiles = "CCOC(=O)c1c(N)sc2c1CCN(C)C2"
property = "pEC50"
result = "< 4.70"

[[record]]
compound_smiles = "CN1CCc2c(sc(N)c2C(N)=O)C1"
property = "pEC50"
result = "< 4.70"

[[record]]
compound_smiles = "CN1CCc2c(sc(N)c2C#N)C1"
property = "pEC50"
result = "< 4.70"

[[record]]
compound_smiles = "CC(C)(C)OC(=O)N1CCc2c(sc(N)c2C#N)C1"
property = "pEC50"
result = "< 4.70"

[[record]]
compound_smiles = "Nc1sc2c(c1C(=O)NNc1ccccc1)CCN(Cc1ccccc1)C2"
property = "pEC50"
result = 5.11


Which pEC50 value is on record for CN1CCc2c(sc(N)c2C(=O)NCc2cccc(Cl)c2)C1 ? 4.88

Which pEC50 value is on record for NC(=O)c1c(N)sc2c1CCN(Cc1ccccc1)C2 ? < 4.70

Which pEC50 value is on record for Nc1sc2c(c1C(=O)c1ccc(Cl)cc1)CCN(Cc1ccccc1)C2 ? < 4.70

Which pEC50 value is on record for CCOC(=O)c1c(N)sc2c1CCN(C(=O)OC(C)(C)C)C2 ? 4.88

Which pEC50 value is on record for Nc1sc2c(c1C(=O)NCc1cccc(Cl)c1)CCN(Cc1ccccc1)C2 ? < 4.70

Which pEC50 value is on record for NNC(=O)c1c(N)sc2c1CCN(Cc1ccccc1)C2 ? 5.05

====

target_under_test: Adenosine receptor A1 (Homo sapiens) (UniProt P30542)
Sequence (P30542 whole entry): as above
protocol_summary: Agonist activity at human adenosine A1 receptor expressed in CHOk1 cells assessed as potentiation of R-PIA-induced ERK1/2 phosphorylation at 10 uM
Type: functional, cell-based
Active and inactive are the calls of the source. No cut-off for these calls is given here.
property: Activity

[[record]]
compound_smiles = "CN1CCc2c(sc(N)c2C(=O)NCc2ccccc2)C1"
target_under_test = "Adenosine receptor A1 (Homo sapiens) (UniProt P30542)"
result = "inactive"

[[record]]
compound_smiles = "CCOC(=O)c1c(N)sc2c1CCN(C(=O)[C@@H](Cc1ccc(Cl)cc1)N(C)C(=O)OC(C)(C)C)C2"
target_under_test = "Adenosine receptor A1 (Homo sapiens) (UniProt P30542)"
result = "inactive"

[[record]]
compound_smiles = "CN1CCc2c(sc(N)c2C(=O)NCc2cccc(Cl)c2)C1"
target_under_test = "Adenosine receptor A1 (Homo sapiens) (UniProt P30542)"
result = "inactive"

[[record]]
compound_smiles = "CN1CCc2c(sc(N)c2C(N)=O)C1"
target_under_test = "Adenosine receptor A1 (Homo sapiens) (UniProt P30542)"
result = "inactive"

